system-tested: prostacyclin receptor (PNS) in the medulla oblongata nucleus ([^3 H] isocarbacyclin receptor) (Rattus norvegicus)
Construct: Blood ingredients were removed from the brain of a rat by systemic perfusion; from tissue; host or cells: rat brain, frozen sections, medulla oblongata nucleus (nucleus solitarius) read by autoradiography
Sequence (P43253 whole entry, the tested form may be a part): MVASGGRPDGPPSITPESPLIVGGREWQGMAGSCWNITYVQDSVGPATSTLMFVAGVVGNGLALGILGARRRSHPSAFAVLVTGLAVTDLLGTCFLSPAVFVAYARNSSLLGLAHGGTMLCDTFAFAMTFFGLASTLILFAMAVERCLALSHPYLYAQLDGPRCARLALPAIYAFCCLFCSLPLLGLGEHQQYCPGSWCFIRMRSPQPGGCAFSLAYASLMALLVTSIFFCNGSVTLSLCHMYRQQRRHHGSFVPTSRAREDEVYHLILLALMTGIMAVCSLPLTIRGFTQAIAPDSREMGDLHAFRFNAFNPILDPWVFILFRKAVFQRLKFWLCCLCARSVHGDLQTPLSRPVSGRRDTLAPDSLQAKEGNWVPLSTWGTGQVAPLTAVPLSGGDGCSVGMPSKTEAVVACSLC
experiment-notes: Displacement test relative to tritium-labelled isocarbacyclin, medulla oblongata nucleus (PNS), autoradiography of frozen brain sections
condition: un-labelled compound 3 × 10^-8 M, 10 nM [^3 H]isocarbacyclin, 4° C., 2 h, pH 7.4, read-out: Binding ratio to [^3 H] isocarbacyclin receptor
readout-type: activity at 0.03 µM (%)

Exam item: I would be grateful if you could share the reported activity at 0.03 µM for Cc1cccc(CCC[C@@H](O)/C=C/[C@@H]2[C@H]3CC(CCCCC(=O)O)=C[C@H]3C[C@H]2O)c1 .
Marked response: 89.9

Exam item: I would be grateful if you could share the reported activity at 0.03 µM for CCCCC[C@H](O)/C=C/[C@@H]1[C@H]2CC(CCCCC(=O)O)=C[C@H]2C[C@H]1O .
Marked response: 57.3

Exam item: I would be grateful if you could share the reported activity at 0.03 µM for Cc1cccc(CCC[C@H](O)/C=C/[C@@H]2[C@H]3CC(CCCCC(=O)O)=C[C@H]3C[C@H]2O)c1 .
Marked response: 80.6

Exam item: I would be grateful if you could share the reported activity at 0.03 µM for Cc1cccc(C[C@H](O)/C=C/[C@@H]2[C@H]3CC(CCCCC(=O)O)=C[C@H]3C[C@H]2O)c1 .
Marked response: 80.5

Exam item: I would be grateful if you could share the reported activity at 0.03 µM for Cc1cccc(C[C@@H](O)/C=C/[C@@H]2[C@H]3CC(CCCCC(=O)O)=C[C@H]3C[C@H]2O)c1 .
Marked response: 79.3

---

system-tested: prostacyclin receptor (PNS) in the medulla oblongata nucleus ([^3 H] isocarbacyclin receptor) (Rattus norvegicus)
Construct: Blood ingredients were removed from the brain of a rat by systemic perfusion; from tissue; host or cells: rat brain, frozen sections, medulla oblongata nucleus (nucleus solitarius) read by autoradiography
experiment-notes: Displacement test relative to tritium-labelled isocarbacyclin, medulla oblongata nucleus (PNS), autoradiography of frozen brain sections
condition: un-labelled compound 10^-8 M, 10 nM [^3 H]isocarbacyclin, 4° C., 2 h, pH 7.4, read-out: Binding ratio to [^3 H] isocarbacyclin receptor
readout-type: activity at 0.01 µM (%)

Exam item: I would be grateful if you could share the reported activity at 0.01 µM for Cc1cccc(C[C@H](O)/C=C/[C@@H]2[C@H]3CC(CCCCC(=O)O)=C[C@H]3C[C@H]2O)c1 .
Marked response: 88.3

Exam item: I would be grateful if you could share the reported activity at 0.01 µM for Cc1cccc(CCC[C@@H](O)/C=C/[C@@H]2[C@H]3CC(CCCCC(=O)O)=C[C@H]3C[C@H]2O)c1 .
Marked response: 92

Exam item: I would be grateful if you could share the reported activity at 0.01 µM for Cc1cccc(C[C@@H](O)/C=C/[C@@H]2[C@H]3CC(CCCCC(=O)O)=C[C@H]3C[C@H]2O)c1 .
Marked response: 74.1

Exam item: I would be grateful if you could share the reported activity at 0.01 µM for CCCCC[C@H](O)/C=C/[C@@H]1[C@H]2CC(CCCCC(=O)O)=C[C@H]2C[C@H]1O .
Marked response: 79

Exam item: I would be grateful if you could share the reported activity at 0.01 µM for Cc1cccc(CCC[C@H](O)/C=C/[C@@H]2[C@H]3CC(CCCCC(=O)O)=C[C@H]3C[C@H]2O)c1 .
Marked response: 92.8
